- measured-target: T1, 4H930-AA
- T1 chain: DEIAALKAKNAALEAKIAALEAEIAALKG
- test-method-notes: two-hybrid library CCmax;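 further: natural log of median RNA to DNA barcode read ratio; higher means stronger binding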
- details: mean of both orientations
observable: interaction score

>>> value("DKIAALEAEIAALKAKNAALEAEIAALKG [4H2162-AA]")
-1.36
>>> value("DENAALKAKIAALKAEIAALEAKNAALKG [4H1864-AA]")
-1.41
>>> value("DEIAALKAEIAALKAKNAALEAKIAALEG [4H629-AA]")
-1.41
>>> value("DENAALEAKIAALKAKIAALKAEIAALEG [4H1385-AA]")
-1.18
>>> value("DEIAALKAKNAALEAEIAALKAKIAALEG [4H909-AA]")
-1.17
>>> value("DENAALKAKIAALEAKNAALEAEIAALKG [4H1842-AA]")
-1.21
